- STUDY SYSTEM: T1, extracellular domain of human CD79b (huCD79becd) (UniProt P40259 29-159)
- T1 chain: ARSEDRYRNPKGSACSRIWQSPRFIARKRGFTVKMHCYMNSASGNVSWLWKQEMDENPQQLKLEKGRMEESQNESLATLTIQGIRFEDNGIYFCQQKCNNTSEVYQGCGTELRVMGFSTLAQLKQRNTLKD
- ASSAY METHOD TEXT: Biacore; IgG
EXPERIMENTAL ENDPOINT: pKd
Note on pKd: it is the negative log10 of concentration, concentration in mol/L.

Solved entries:
{"columns": ["BINDER", "pKd"],
 "data": [
  ["murine anti-CD79b monoclonal antibody MA79b (antibody, V domains shown) VH: EVQLQQSGAELMKPGASVKISCKATGYTFSSYWIEWVKQRPGHGLEWIGEILPGGGDTNYNEIFKGKATFTADTSSNTAYMQLSSLTSEDSAVYYCTRRVPVYFDYWGQGTSVTVSS VL: DIVLTQSPASLAVSLGQRATISCKASQSVDYDGDSFLNWYQQKPGQPPKLFIYAASNLESGIPARFSGSGSGTDFTLNIHPVEEEDAATYYCQQSNEDPLTFGAGTELELKR", 8.33],
  ["hu MA79b H1-6 (IgG) (antibody, V domains shown) VH: EVQLVESGGGLVQPGGSLRLSCAASGYPFTRYWINWVRQAPGKGLEWVGEILPGGGDTNYNEIFKGRFTISADTSKNTAYLQMNSLRAEDTAVYYCTRRVPVYFDYWGQGTLVTVSS VL: DIQMTQSPSSLSASVGDRVTITCKASQSVDYDGDSFLNWYQQKPGKAPKLLIYAASNLESGVPSRFSGSGSGTDFTLTISSLQPEDFATYYCQQSNEDPLTFGQGTKVEIKR", 7.38],
  ["hu MA79b H3-10 (IgG) (antibody, V domains shown) VH: EVQLVESGGGLVQPGGSLRLSCAASGYTFSSYWIEWVRQAPGKGLEWVGEILPGGGDTNYNEIFKGRFTISADTSKNTAYLQMNSLRAEDTAVYYCTRRVPIRLDYWGQGTLVTVSS VL: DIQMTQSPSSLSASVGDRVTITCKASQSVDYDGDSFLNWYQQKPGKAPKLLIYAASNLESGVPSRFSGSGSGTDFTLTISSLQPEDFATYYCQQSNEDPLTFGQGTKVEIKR", 7.54]
]}

Now for the binder whose pKd we want.
Data request: Fill blank: measured pKd of the binder MA79b-grafted humanized antibody variant L2-2 (huMA79b L2-2), IgG (antibody, V domains shown) VH: EVQLVESGGGLVQPGGSLRLSCAASGYTFSSYWIEWVRQAPGKGLEWVGEILPGGGDTNYNEIFKGRFTISADTSKNTAYLQMNSLRAEDTAVYYCTRRVPVYFDYWGQGTLVTVSS VL: DIQMTQSPSSLSASVGDRVTITCKASQSVDYDGDSFLNWYQQKPGKAPKLLIYAARKLGRGVPSRFSGSGSGTDFTLTISSLQPEDFATYYCQQSNEDPLTFGQGTKVEIKR is ____.
Data returned: 7.37
